- STUDY_TARGET: Histone-lysine N-methyltransferase 2A/WDR5 (Homo sapiens, UniProt P61964)
- TEST_DESCRIPTION: Inhibition of MLL1/WDR5 (unknown origin) protein-protein interaction incubated for 2 hrs by FP analysis
As shown below, each of these compounds has a reported IC50 value.
OUTCOME_MEASURE: IC50 (nM)

> print(dat)
                      smiles.representation                              study.target  unit.of.measurement  result.number
1  Cc1c(F)c(N)cc(C(=O)Nc2cc(-c3ccc(C(=O)NCCCCCC(=O)NO)cc3)ccc2N2CCN(C)CC2)c1Cl  Histone-lysine N-methyltransferase 2A/WDR5 (Homo sapiens, UniProt P61964)                   nM             71
2  Cc1c(F)c(N)cc(C(=O)Nc2cc(-c3ccc(C(=O)NCCCCCCC(=O)NO)cc3)ccc2N2CCN(C)CC2)c1Cl  Histone-lysine N-methyltransferase 2A/WDR5 (Homo sapiens, UniProt P61964)                   nM             40
3  Cc1c(F)c(N)cc(C(=O)Nc2cc(-c3ccc(NC(=O)CCCCCCC(=O)NO)cc3)ccc2N2CCN(C)CC2)c1Cl  Histone-lysine N-methyltransferase 2A/WDR5 (Homo sapiens, UniProt P61964)                   nM             41
4  Cc1c(F)c(N)cc(C(=O)Nc2cc(-c3ccc(C(=O)NCc4ccc(/C=C/C(=O)NO)cc4)cc3)ccc2N2CCN(C)CC2)c1Cl  Histone-lysine N-methyltransferase 2A/WDR5 (Homo sapiens, UniProt P61964)                   nM             42
